# mean tumor volume at termination of the study listing for each entry below
Tested on: Daudi human Burkitt Lymphoma derived tumors
Test: Daudi lymphoma murine xenograft model, efficacy
Assay type: in vivo, male SCID mice
Settings: p.o. in sesame oil; compound 47 250, compound 36 (printed 26) 250, compound 1 125, R-etodolac 400 mg/kg/d; control 1583 mm^3
propertyMeasured: mean tumor volume at termination of the study

>>> observedmeasurement("CCc1cc(-c2ccccc2)cc2c3c([nH]c12)C(CC)(CCO)OCC3 (stereo not shown)")
"1011 mm^3"
>>> observedmeasurement("CCc1cc(Br)cc2c3c([nH]c12)C(CC)(CCO)OCC3 (stereo not shown)")
"802 mm^3"
>>> observedmeasurement("CCC1(CCO)OCCc2c1[nH]c1c(C(C)C)cccc21 (stereo not shown)")
"996 mm^3"
>>> observedmeasurement("CCc1cccc2c3c([nH]c12)[C@@](CC)(CC(=O)O)OCC3 [R-etodolac, reference compound]")
"1157 mm^3"

====

Target: COX-1 (Homo sapiens)
Construct: endogenous in cells; host or cells: human platelets
Sequence (P23219 24-599): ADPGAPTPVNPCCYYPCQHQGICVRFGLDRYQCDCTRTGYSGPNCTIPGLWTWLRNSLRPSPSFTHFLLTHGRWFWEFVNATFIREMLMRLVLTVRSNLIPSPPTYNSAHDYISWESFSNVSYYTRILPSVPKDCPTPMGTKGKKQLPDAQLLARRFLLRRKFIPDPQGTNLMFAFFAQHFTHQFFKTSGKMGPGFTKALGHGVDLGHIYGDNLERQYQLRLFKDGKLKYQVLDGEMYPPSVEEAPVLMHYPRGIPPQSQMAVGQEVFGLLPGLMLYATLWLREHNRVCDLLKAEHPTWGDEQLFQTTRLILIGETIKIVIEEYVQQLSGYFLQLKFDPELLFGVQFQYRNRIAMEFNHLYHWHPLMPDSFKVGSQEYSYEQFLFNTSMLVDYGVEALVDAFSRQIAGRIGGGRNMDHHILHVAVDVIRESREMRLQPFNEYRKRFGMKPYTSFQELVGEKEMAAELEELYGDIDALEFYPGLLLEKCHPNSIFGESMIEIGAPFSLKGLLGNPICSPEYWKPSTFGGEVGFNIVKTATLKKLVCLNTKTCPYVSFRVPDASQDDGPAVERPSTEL
Assay: Cox-1 assay: PGE2 formation in human platelets
Format: cell-based
Conditions: compounds are screened at 10 μM
propertyMeasured: inhibition at 10 µM (%)

>>> observedmeasurement("CCC1(CCO)OCCc2c1[nH]c1c(C(C)C)cccc21 (stereo not drawn) [Compound 36]")
-4
>>> observedmeasurement("CCc1cc(-c2ccc3c(c2)OCO3)cc2c3c([nH]c12)C(CC)(CCO)OCC3 (stereo not drawn) [Compound 9]")
88
>>> observedmeasurement("CCc1cc(-c2cc3ccccc3s2)cc2c3c([nH]c12)C(CC)(CCO)OCC3 (stereo not drawn) [Compound 52]")
78
>>> observedmeasurement("CCC1(CCO)OCCc2c1[nH]c1c(Cl)cccc21 (stereo not drawn) [Compound 27]")
24
>>> observedmeasurement("CCc1cc(-c2ccc(C)cc2)cc2c3c([nH]c12)C(CC)(CCO)OCC3 (stereo not drawn) [Compound 53]")
90
>>> observedmeasurement("CCc1cc(Br)cc2c3c([nH]c12)C(CC)(CCO)OCC3 (stereo not drawn) [Compound 47]")
45
>>> observedmeasurement("CCc1cc(-c2ccccc2)cc2c3c([nH]c12)C(CC)(CCO)OCC3 (stereo not drawn) [Compound 1]")
96
>>> observedmeasurement("CCc1cccc2c3c([nH]c12)[C@@](CC)(CCO)OCC3 [Compound 35]")
-69
>>> observedmeasurement("CCc1cc(-c2ccc(F)cc2)cc2c3c([nH]c12)C(CC)(CCO)OCC3 (stereo not drawn) [Compound 7]")
94

====

Target: Cyclooxygenase-2 (human recombinant, expressed in Sf9 cell) (Homo sapiens, UniProt P35354)
Construct: purchased Cayman 60122; host or cells: Sf9 cell
Sequence (P35354 18-604): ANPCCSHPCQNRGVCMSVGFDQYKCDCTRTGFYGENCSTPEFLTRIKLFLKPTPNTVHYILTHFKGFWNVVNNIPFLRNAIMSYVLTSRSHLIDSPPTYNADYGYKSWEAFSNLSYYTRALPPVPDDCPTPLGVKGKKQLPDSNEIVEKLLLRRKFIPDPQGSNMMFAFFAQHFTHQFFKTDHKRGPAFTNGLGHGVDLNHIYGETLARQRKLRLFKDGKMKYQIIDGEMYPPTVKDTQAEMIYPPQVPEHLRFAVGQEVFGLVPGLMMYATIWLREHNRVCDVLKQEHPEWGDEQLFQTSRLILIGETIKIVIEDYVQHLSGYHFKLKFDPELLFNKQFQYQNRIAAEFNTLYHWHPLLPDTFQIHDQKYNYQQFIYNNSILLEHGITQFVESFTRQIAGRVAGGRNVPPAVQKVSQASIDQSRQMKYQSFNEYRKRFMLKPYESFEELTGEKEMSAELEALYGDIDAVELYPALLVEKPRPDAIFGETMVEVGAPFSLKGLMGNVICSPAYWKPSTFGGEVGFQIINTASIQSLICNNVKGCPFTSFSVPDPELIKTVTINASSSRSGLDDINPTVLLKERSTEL
Assay: Cox-2 assay: human recombinant cyclooxygenase-2, PGE2 by EIA
Assay type: biochemical
Details: human recombinant enzyme; compounds are screened at 10 μM
Decision: inhibition at 10 µM compared against 80%; not below it gives YES, below it gives NO.

>>> assignedlabel("CCc1cccc2c3c([nH]c12)[C@@](CC)(CCO)OCC3")
"NO"
>>> assignedlabel("CCc1cc(-c2ccc3c(c2)OCO3)cc2c3c([nH]c12)C(CC)(CCO)OCC3 (stereo not shown)")
"YES"
>>> assignedlabel("CCC1(CCO)OCCc2c1[nH]c1c(Cl)cccc21 (stereo not shown)")
"NO"
>>> assignedlabel("CCc1cc(-c2ccc(C)cc2)cc2c3c([nH]c12)C(CC)(CCO)OCC3 (stereo not shown)")
"YES"
>>> assignedlabel("CCc1cc(-c2ccccc2)cc2c3c([nH]c12)C(CC)(CCO)OCC3 (stereo not shown)")
"YES"
>>> assignedlabel("CCc1cc(-c2ccc(F)cc2)cc2c3c([nH]c12)C(CC)(CCO)OCC3 (stereo not shown)")
"YES"
>>> assignedlabel("CCc1cc(-c2cc3ccccc3s2)cc2c3c([nH]c12)C(CC)(CCO)OCC3 (stereo not shown)")
"YES"
>>> assignedlabel("CCc1cccc2c3c([nH]c12)C(CC)(CC(=O)O)OCC3 (stereo not shown) [Etodolac, reference compound]")
"NO"
>>> assignedlabel("CCC1(CCO)OCCc2c1[nH]c1c(C(C)C)cccc21 (stereo not shown)")
"NO"
